System: PC-3 prostate
Test: NCI-60 one-dose screen, 48 h
Settings: 10 µM unless noted
This is part of a sample that, as a whole, favours compounds with a hit. Of some 83,000 tested, about 20% had one in any assay. Activity calls are given as the source filed them. Rule for the calls: active = growth percent below 10; inactive = the rest.
Labels: active, inactive

• O=C(Nc1nc2ccc([N+](=O)[O-])cc2s1)Nc1ccccc1F = inactive
• Fc1cccc(CNc2nc(SCCN3CCOCC3)nc3c2cnn3CC(Cl)c2ccc(Br)cc2)c1 (stereo not drawn) = inactive
• N/C(=N\c1nc2ccccc2s1)NC(=O)Nc1ccccc1F = inactive
• CCc1ccc(SC2c3cc(OC)ccc3Oc3nc(N)c(C#N)c(N)c32)cc1 (stereo not drawn) = active
• O=C1Nc2ccccc2/C1=C/C(=O)c1cc2ccccc2oc1=O = inactive
• O=C(CSc1nnc(-c2ccc(-c3nc4ccc(Cl)cc4[nH]3)cc2)o1)Nc1ccc(Br)cc1 = active
• C[C@H](NC(=O)c1ccc2c(-c3ccc(C(F)(F)F)cc3)cccc2c1)c1ccccn1 = inactive
• CCOC(=O)/C(F)=C/C1CC1C(c1ccccc1)c1ccccc1 (stereo not drawn) = inactive
• Cc1cccc(/C=C/c2ccc(NC(=S)NCCCCN(C)C)cc2)c1 = active
• O=c1ccc(Cn2c(C(F)(F)F)cc3c(Cl)ncnc32)c[nH]1 = inactive
• COc1ccc(/C=C/c2nc3ccccc3c(=O)n2CC(=O)Nc2ccccc2)cc1 = inactive
• Cc1ccc(C(=O)Nc2cc(-n3cnc(F)c3)cc(C(F)(F)F)c2)cc1C#Cc1cnc2cccnn12 = inactive
• COc1cc(C2CC(c3ccc(F)cc3)=Nc3c(N)nc(N)nc3N2)ccc1Oc1nc(Nc2ccc(F)cc2)nc(N(C)C)n1 (stereo not drawn) = inactive
• C=CCSc1nnc(-c2c(C)nc3sccn23)o1 = inactive
• COc1ccc(-c2cc(-c3ccccc3)c(C#N)c(=O)[nH]2)cc1S(N)(=O)=O = inactive
• Cc1cc(=O)oc2cc(OCC(O)CNN3C(=O)c4cccc5c(N6CCN(C)CC6)ccc(c45)C3=O)ccc12 (stereo not drawn) = inactive
• COc1ccc2c(c1)N=c1c-2cc2c(O)[nH]c(=S)n2c1=O = inactive
• COc1cc(/C=C/C(=O)c2cnn(-c3cc(=O)[nH]c4ccc(Br)cc34)c2C)cc(OC)c1OC = active
• CN1C(=O)/C(=C\C(=O)c2cc3ccccc3oc2=O)c2ccccc21 = inactive
• COc1ccc(N=Nc2c(N)nn3c(-c4cc5ccccc5oc4=O)ccnc23)cc1 = inactive
• Cc1ccc2nc(COc3ccc(C(=O)NNC(=O)Nc4ccc(Cl)c(C(F)(F)F)c4)cc3)[nH]c2c1 = inactive
• CS(=O)(=O)Nc1cc(-c2ccc3ncnc(Nc4ccc(OCc5cccnc5)c(Cl)c4)c3c2)cnc1Cl = active
• COC(=O)c1cc(C(=O)C(C)(C)C)n2c3ccccc3c3ccccc3c12 = inactive
• COc1ccc2[nH]c(O)c(N=Nc3nc(-c4ccccc4)cs3)c2c1 = inactive
• COc1cc(/C=N/NC(=O)c2ccc(OCc3nc4ccc(Cl)cc4[nH]3)cc2)cc(OC)c1OC = inactive
• Cc1ccc(C(=O)Nc2cc(-c3ccncc3)cc(C(F)(F)F)c2)cc1C#Cc1cnc2cccnn12 = inactive
• CC(C)C[C@H](NC(=O)[C@@H]1CCCCCCCCCCC(=O)N[C@@H](CC(=O)N2CCC[C@@H]2C2CCCC2)C(=O)N1)B(O)O = active
• COc1ccc2[nH]cc(-c3cc4nc(-c5cn(C)c6ncc(Br)cc56)cc(N)n4n3)c2c1 = active
• COc1ccc2c(c1)C(=O)N(C)C2C1c2c(cc3c(c2OC)OCO3)CCN1C (stereo not drawn) = inactive
• COc1cc2cc(C(=O)N3C[C@@H](CCl)c4c3cc(OC(=O)N(CCC(=O)N3CCN(C)CC3)C3CCCCC3)c3ccccc43)[nH]c2c(OC)c1OC = active
• COc1ccc(-c2nnc3c(/C=C/c4ccc(Br)cc4)nc4ccccc4n23)cc1 = inactive
• CCOC(=O)c1ccc(NC(=S)NC(=O)c2ccc(NC(=O)C(C)C)cc2OC)cc1 = inactive
• CN1C(=O)/C(=C/c2ccco2)S/C1=N/c1nccs1 = inactive
• COc1ccc2[nH]c(=O)cc(-n3ncc(C(=O)/C=C/c4cc(OC)c(OC)c(OC)c4)c3C)c2c1 = active
• COc1ccc(S(=O)(=O)Nc2ccc(-c3ccc4c(c3)NC(=O)/C4=C\c3ccc[nH]3)cc2)cc1OC = inactive
• O=C(Cn1c(-c2ccccc2)nc2ccccc21)N=Nc1c(O)[nH]c2ccc(Br)cc12 = active
• CN(C)C(=O)c1cc(-c2ccc3ncnc(N4CCc5cc(F)c(Cl)cc54)c3c2)cnc1N = active
• COc1cc(CNC(=O)C[C@H](C)CCC=C(C)C)ccc1OCc1cn(-c2ccccc2Cl)nn1 = inactive

* * *

Tested on: UO-31 renal
Experiment: NCI-60 one-dose screen, 48 h (100 = growth as untreated, 0 = no growth, -100 = all killed)
Settings: 10 µM unless noted
About 83,000 compounds went through this panel and 20% of them were active in at least one assay; those are over-represented in the sample as a whole. The source made the active and inactive calls. The calls were made as follows: active = growth percent below 10; inactive = the rest.
Outcome Measure: growth

* Oc1ccc(F)c(Nc2nc(SCCN3CCOCC3)nc3c2cnn3CC(Cl)c2ccc(Br)cc2)c1 (centres undefined) | 16.9% (inactive)
* O=C(CSc1nc2c(c(=O)[nH]1)CCCC2)Nc1ccccc1C(=O)O | 82.3% (inactive)
* CCc1ccccc1NC(=O)N/C(N)=N/c1nc2ccccc2s1 | 34.7% (inactive)
* O=C(NNC(=O)c1ccc(OCc2nc3ccc(Cl)cc3[nH]2)cc1)Nc1ccc(Cl)c(C(F)(F)F)c1 | 82.8% (inactive)
* COc1ccc(N=Nc2c(N)nn3c(N)c(C#N)c(-c4ccc(C)cc4)nc23)cc1 | 61.1% (inactive)
* COc1ccc(N=Nc2c(N)nn3c(N)c(C#N)c(-c4ccccc4)nc23)cc1 | 28.4% (inactive)
* COc1ccc(S(=O)(=O)Nc2ccc(-c3ccc4c(c3)NC(=O)/C4=C\c3ccc[nH]3)cc2)cc1OC | 54.7% (inactive)
* O=C1N/C(=N\c2nccs2)S/C1=C\c1ccc([N+](=O)[O-])cc1 | 12.6% (inactive)
* O=c1c(-c2nc(-c3ccccc3)c(-c3ccccc3)[nH]2)coc2ccc(F)cc12 | 40.4% (inactive)

* * *

System: HCT-15 colon
Assay: NCI-60 one-dose screen, 48 h
Conditions: 10 µM unless noted
About 83,000 compounds went through this panel and 20% of them were active in at least one assay; those are over-represented in the sample as a whole. Calls of active or inactive are those of the source. The calls were made as follows: active = growth percent below 10; inactive = the rest.
Classes used: active, inactive

- O=c1ccc(Cn2c(C(F)(F)F)cc3c(Cl)ncnc32)c[nH]1: active
- CC1=C(C(=O)OCc2ccccc2)C(c2cccc3ccccc23)n2c(nc3ccccc32)N1 (stereo not drawn): inactive
- N#CC1=C(c2cccs2)Nc2c(c(-c3ccccc3)nn2-c2ccccc2)C12C(=O)Nc1ccc(Br)cc12 (stereo not drawn): active
- C[C@H](NC(=O)c1ccc2c(-c3ccc(C(F)(F)F)cc3)cccc2c1)c1ccccn1: inactive
- C=CCSc1nnc(-c2ccc(-c3nc4ccccc4[nH]3)cc2)o1: inactive
- O=C(CSc1nc2sc3c(c2c(=O)n1-c1ccc(Cl)cc1)CCCC3)NNC(=O)c1ccc(Br)cc1: inactive
- O=C(N/N=C/c1ccoc1)c1[nH]c2ccc(Br)cc2c1-c1ccccc1: active
- COc1ccc(NC2=C(I)C(=O)C(C)=C(C)C2=O)cc1: inactive
- NC(=O)c1ccc(-c2ccc3ncnc(N4CCc5cc(F)c(Cl)cc54)c3c2)cn1: inactive
- CCCCC[C@@H]1C/C=C(\C)[C@@H](O)C(C)(C)C(=O)[C@@H](C)/C=C(\C)[C@@H]2C[C@H](O)C[C@](O)(CC(=O)O1)O2: inactive
- O=c1[nH]c2ccccc2cc1CSc1ccccc1Nc1nccc(-c2ccc3c(c2)OCO3)n1: inactive
- Cc1cc(C(NC(=O)CCCCCNc2cccc3c2C(=O)N(C2CCC(=O)CC2=O)C3=O)c2cccc(N(C)C)c2)c(O)c2ncccc12 (stereo not drawn): active
- CCc1ccccc1-c1nc(CN[C@@H]2C[C@@H]3C[C@H]([C@H]2C)C3(C)C)c(C)o1: active
- COc1ccc2[nH]cc(-c3cc4nc(-c5cn(C)c6ncccc56)cc(N)n4n3)c2c1: active
- OC1CCC(Cn2c(C(F)(F)F)cc3c(Cl)ncnc32)CC1 (stereo not drawn): active
- COc1cc(CNC(=O)[C@]23CCC(C)(C)CC2C2=CCC4[C@@]5(C)CCC(OC(C)=O)C(C)(C)C5CC[C@@]4(C)[C@]2(C)CC3)ccc1OCc1cn(-c2ccc(Cl)cc2Cl)nn1 (stereo partly drawn): inactive
- Nc1nc(-c2ccccc2)c(N=Nc2ccc(Cl)cc2Cl)s1: active
- COc1ccc(-c2cc(-c3cc(C(C)C)c(O)cc3C)nn2-c2ccc(S(N)(=O)=O)cc2)cc1: active
